# System: Epidermal growth factor receptor (Homo sapiens), P00533 [T790M]
# Sequence (P00533 whole entry T790M): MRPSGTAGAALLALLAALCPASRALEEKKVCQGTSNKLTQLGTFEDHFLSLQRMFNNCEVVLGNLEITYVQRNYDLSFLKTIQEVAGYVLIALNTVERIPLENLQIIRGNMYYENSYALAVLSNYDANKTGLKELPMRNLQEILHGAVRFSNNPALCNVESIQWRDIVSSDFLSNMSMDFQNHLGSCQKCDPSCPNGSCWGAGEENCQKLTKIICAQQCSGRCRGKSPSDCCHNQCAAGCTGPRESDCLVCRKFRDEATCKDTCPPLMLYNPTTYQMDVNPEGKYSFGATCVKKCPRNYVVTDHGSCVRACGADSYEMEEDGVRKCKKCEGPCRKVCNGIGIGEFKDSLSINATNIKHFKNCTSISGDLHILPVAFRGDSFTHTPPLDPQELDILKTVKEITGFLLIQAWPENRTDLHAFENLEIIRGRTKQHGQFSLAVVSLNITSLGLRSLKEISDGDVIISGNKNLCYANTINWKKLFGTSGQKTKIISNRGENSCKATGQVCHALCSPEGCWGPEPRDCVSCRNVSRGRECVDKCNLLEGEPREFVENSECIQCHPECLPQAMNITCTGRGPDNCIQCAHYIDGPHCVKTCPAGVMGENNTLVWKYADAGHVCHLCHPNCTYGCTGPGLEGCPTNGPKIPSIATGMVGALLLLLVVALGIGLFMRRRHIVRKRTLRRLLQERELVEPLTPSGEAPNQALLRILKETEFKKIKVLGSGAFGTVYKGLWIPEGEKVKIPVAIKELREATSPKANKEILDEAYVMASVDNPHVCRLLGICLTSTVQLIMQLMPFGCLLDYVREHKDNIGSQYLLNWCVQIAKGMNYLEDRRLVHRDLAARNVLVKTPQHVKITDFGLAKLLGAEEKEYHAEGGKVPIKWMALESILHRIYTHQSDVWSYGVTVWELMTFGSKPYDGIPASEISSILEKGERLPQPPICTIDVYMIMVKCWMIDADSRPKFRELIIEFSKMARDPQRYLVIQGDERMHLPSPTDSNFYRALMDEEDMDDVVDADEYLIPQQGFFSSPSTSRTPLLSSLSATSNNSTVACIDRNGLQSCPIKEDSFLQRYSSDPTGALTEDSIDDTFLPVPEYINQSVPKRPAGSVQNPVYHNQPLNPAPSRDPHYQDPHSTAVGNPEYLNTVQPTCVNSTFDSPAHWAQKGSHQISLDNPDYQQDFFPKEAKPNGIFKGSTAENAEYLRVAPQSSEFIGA
# condition: at 1 µM
test.readout: inhibition
Numeric answer plus unit only.

| compound | test.readout | observed.measurement |
| --- | --- | --- |
| COc1cc(C)c(NC(=O)CN(C)C)cc1Nc1nc(Nc2cccc(F)c2C(N)=O)c2cc[nH]c2n1 | inhibition | 30.3% |
| [O-][S+]1CCN(Cc2ccc(-c3ccc4ncnc(Nc5ccc(OCc6ccccc6)c(F)c5)c4c3)o2)CC1 | inhibition | 10.7% |
| CCn1c(-c2nonc2N)nc2ccncc21 | inhibition | 0.29% |
| CN1CCC(C(=O)Nc2n[nH]c3nnc(-c4ccccc4)cc23)CC1 | inhibition | 4.1% |

The compound listed as CCN1CCC(CC(=O)Nc2n[nH]c3nc(-c4cccs4)c(Br)cc23)CC1 shows inhibition equal to -1.12%

The compound listed as CCn1c(-c2nonc2N)nc2cnc(Oc3cccc(NC(=O)c4ccc(OCCN5CCOCC5)cc4)c3)cc21 shows inhibition equal to 2.18%

The compound listed as CC(C)=Cc1cccc2c1/C(=N/Nc1ccc(S(N)(=O)=O)cc1)C(=O)N2 shows inhibition equal to 1.05%

The compound listed as Cc1nn(C)c2cc(N(C)c3ccnc(Nc4cccc(S(N)(=O)=O)c4)n3)ccc12 shows inhibition equal to 7.49%

The compound listed as Nc1nc(-c2ccc3c(c2)C(=Cc2cc(Br)c(O)c(Br)c2)C(=O)N3)cs1 shows inhibition equal to -1.57%

The compound listed as NCc1ccc(-c2nc(-c3ccc(Cl)c(O)c3)c(-c3ccncc3)[nH]2)cc1 shows inhibition equal to 0.46%

The compound listed as CS(=O)(=O)Nc1ccc(N/C=C2\C(=O)Nc3ccccc32)cc1 shows inhibition equal to -1.95%

The compound listed as COc1cc2ncn(-c3cc(OCc4ccccc4Cl)c(C(N)=O)s3)c2cc1OC shows inhibition equal to 0.02%

The compound listed as NC(=O)c1ccc(-c2nc(-c3ccccn3)c(-c3ccc4c(c3)OCO4)[nH]2)cc1 shows inhibition equal to 1.62%

The compound listed as COc1ccccc1Nc1ncc(-c2ccccc2)o1 shows inhibition equal to 2.18%

The compound listed as CCc1cccc(NC(=O)Nc2ccc(Oc3ccc4nc(NC(=O)OC)[nH]c4c3)cc2)c1 shows inhibition equal to 1.6%

###

# assayed.system: Protein-tyrosine kinase 6 (Homo sapiens)
# condition: at 0.1 µM
# Description: GSK_PKIS: BRK mean inhibition at 0.1 uM [Nanosyn]
Recorded inhibition by entry

Record excerpt, results attached:
| compound | observed.measurement |
| --- | --- |
| O=C1NC(=O)C(N2CCc3ccccc32)=C1c1ccc(Cl)cc1 | 4.84% |
| CCc1cccc(NC(=O)Nc2ccc(Oc3ccc4nc(NC(=O)OC)[nH]c4c3)cc2)c1 | 1.3% |
| Nc1nc(-c2ccccn2)c(-c2ccc3ncccc3n2)s1 | 2.76% |

The compound listed as COc1ccc(COc2ccc(Cc3cnc(N)nc3N)cc2OC)cc1 shows inhibition equal to -1.66%

The compound listed as NCc1ccc(-c2nc(-c3ccc(Cl)c(O)c3)c(-c3ccncc3)[nH]2)cc1 shows inhibition equal to 13.9%

The compound listed as [O-][S+]1CCN(Cc2ccc(-c3ccc4ncnc(Nc5ccc(OCc6ccccc6)c(F)c5)c4c3)o2)CC1 shows inhibition equal to 0.34%

The compound listed as N#Cc1c(NC(=O)c2cccc3ccccc23)sc2c1CCCC2 shows inhibition equal to 3.4%

The compound listed as CNC(=O)c1cncc(/C=C/c2c(Cl)cccc2Cl)c1 shows inhibition equal to 13.5%

###

# System: Proto-oncogene tyrosine-protein kinase receptor Ret (Homo sapiens), P07949 [V804L]
# Sequence (P07949 whole entry V804L): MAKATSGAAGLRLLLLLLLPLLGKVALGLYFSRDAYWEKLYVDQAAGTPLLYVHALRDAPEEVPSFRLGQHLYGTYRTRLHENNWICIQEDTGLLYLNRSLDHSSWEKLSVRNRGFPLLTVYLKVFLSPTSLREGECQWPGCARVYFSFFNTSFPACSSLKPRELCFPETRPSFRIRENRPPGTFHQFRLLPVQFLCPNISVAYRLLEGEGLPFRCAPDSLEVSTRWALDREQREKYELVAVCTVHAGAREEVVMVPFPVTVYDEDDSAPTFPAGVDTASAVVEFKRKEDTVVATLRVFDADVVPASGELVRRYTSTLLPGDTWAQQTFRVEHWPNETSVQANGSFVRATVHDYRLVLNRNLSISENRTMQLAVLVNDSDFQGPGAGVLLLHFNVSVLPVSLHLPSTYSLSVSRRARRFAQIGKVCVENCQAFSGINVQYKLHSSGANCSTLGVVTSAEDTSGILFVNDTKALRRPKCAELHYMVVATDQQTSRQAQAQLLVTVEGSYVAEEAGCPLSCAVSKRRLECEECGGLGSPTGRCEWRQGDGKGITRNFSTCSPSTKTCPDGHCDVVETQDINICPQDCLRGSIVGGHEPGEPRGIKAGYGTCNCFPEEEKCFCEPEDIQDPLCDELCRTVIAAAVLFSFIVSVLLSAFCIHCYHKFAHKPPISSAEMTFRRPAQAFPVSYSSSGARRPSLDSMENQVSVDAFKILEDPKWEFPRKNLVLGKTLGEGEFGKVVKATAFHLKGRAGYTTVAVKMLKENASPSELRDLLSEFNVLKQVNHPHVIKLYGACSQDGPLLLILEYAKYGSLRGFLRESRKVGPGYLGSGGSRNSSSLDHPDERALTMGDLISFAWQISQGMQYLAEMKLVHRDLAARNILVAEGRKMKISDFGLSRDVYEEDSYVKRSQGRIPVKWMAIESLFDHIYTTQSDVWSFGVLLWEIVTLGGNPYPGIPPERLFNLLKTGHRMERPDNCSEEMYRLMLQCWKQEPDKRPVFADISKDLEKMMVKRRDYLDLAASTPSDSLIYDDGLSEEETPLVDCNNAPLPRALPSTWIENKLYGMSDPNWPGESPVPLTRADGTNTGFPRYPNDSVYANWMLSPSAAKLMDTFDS
# condition: at 1 µM
Recorded inhibition by entry
Entry rule: numbers only, all in %.

Record excerpt, results attached:
| compound | assayed.system | inhibition [%] |
| --- | --- | --- |
| COc1ccccc1Nc1ncc(-c2ccccc2)o1 | Proto-oncogene tyrosine-protein kinase receptor Ret (Homo sapiens), P07949 [V804L] | 5.75 |
| CN(C)c1cc2c(Nc3ccc4nc(Cc5ccccc5)[nH]c4c3)ncnc2cn1 | Proto-oncogene tyrosine-protein kinase receptor Ret (Homo sapiens), P07949 [V804L] | 7.59 |

The compound listed as CC1=C(C(=O)Nc2ccc3[nH]ncc3c2)C(c2ccc(F)cc2)NC(=O)N1 (centres undefined) shows inhibition equal to 35.5

The compound listed as CCn1c(-c2nonc2N)nc2cncc(C(=O)N3CC[C@H](N)C3)c21 shows inhibition equal to 4.03

###

# Test system: Leucine-rich repeat serine/threonine-protein kinase 2 (Homo sapiens), Q5S007 [G2019S]
# Sequence (Q5S007 whole entry G2019S): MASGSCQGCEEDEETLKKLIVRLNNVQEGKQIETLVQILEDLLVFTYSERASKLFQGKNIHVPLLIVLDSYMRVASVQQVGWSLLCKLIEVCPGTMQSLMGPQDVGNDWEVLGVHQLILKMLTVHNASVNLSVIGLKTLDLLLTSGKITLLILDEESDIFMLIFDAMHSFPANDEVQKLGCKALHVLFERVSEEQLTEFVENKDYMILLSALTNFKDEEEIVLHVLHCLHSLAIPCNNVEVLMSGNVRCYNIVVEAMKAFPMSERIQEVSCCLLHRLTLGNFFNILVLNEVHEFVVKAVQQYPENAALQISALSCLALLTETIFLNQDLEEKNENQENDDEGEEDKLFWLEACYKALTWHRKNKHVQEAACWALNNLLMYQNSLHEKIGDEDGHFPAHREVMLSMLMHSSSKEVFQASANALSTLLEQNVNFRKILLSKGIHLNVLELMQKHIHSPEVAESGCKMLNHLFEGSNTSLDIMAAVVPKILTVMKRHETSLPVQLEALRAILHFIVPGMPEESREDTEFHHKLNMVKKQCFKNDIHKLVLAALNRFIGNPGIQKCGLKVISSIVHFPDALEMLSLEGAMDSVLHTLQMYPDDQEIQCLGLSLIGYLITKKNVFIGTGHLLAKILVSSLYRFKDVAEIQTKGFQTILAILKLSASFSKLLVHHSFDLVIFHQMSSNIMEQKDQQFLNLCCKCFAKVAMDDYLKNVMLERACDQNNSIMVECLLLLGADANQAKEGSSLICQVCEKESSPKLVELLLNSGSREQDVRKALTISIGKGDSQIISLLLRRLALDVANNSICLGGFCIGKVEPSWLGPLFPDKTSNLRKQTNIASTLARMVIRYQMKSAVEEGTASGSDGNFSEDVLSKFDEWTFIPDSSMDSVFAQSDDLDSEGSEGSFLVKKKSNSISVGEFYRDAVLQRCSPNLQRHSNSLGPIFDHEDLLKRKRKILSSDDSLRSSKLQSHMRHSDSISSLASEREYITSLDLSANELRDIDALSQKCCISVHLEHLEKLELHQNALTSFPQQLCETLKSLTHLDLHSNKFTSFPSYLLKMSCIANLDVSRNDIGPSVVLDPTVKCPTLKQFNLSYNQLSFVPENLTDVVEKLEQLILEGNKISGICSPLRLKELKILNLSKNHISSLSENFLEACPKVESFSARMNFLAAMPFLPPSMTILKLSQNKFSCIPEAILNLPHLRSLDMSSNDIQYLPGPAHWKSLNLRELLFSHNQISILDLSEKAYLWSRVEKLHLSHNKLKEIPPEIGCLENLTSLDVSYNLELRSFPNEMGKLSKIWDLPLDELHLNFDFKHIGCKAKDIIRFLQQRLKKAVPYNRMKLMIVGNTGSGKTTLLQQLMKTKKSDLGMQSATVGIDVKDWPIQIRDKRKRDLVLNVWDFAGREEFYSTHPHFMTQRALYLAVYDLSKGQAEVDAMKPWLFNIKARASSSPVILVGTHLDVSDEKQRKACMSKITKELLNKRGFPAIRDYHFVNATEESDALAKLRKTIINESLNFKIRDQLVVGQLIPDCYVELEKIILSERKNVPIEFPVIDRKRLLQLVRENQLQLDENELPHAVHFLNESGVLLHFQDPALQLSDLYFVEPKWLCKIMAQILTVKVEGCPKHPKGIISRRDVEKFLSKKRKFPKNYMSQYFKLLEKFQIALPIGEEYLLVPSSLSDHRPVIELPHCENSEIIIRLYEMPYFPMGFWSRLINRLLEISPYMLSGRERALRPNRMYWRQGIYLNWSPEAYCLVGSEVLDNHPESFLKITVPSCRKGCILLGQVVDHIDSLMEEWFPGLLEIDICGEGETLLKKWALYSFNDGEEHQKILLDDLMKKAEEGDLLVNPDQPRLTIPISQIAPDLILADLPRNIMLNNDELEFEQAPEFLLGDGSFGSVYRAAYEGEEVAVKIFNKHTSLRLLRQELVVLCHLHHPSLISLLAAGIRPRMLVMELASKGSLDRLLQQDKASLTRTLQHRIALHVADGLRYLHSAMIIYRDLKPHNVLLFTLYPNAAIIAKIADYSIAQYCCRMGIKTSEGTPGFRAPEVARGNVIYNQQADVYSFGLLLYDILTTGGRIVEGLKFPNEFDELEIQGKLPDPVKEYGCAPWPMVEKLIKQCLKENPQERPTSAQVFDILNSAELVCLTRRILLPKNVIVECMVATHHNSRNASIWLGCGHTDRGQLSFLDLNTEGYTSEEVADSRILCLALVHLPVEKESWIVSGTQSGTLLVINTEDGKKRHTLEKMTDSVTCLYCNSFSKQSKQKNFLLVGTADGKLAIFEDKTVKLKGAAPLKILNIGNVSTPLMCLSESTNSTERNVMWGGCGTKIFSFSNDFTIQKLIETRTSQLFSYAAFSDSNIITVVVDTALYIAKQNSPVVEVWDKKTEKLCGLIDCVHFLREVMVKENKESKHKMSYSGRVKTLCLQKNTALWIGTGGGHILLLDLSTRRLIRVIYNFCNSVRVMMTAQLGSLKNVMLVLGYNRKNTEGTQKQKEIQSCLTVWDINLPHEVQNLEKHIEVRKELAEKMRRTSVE
# condition: at 0.1 µM
Hi, to clarify the labels: 1.0 covers inhibition from 4% upward, 0.0 covers anything below 4%.

| smi | qualitative.label |
| --- | --- |
| CCCN1CCC=C(c2ccc(Nc3nc(Nc4ccccc4C(N)=O)c4cc[nH]c4n3)c(C)c2)C1 | 1.0 |
| CCn1c(-c2nonc2N)nc2cnc(Oc3cccc(NC(=O)c4ccc(OCCN5CCOCC5)cc4)c3)cc21 | 1.0 |
| Fc1cccc(COc2ccc(Nc3ncnc4sc(-c5cccs5)cc34)cc2Cl)c1 | 0.0 |
| Cc1cccc(-c2n[nH]cc2-c2ccc3ncccc3n2)n1 | 0.0 |
| CCn1c(-c2nonc2N)nc2c(C#CC(C)(C)O)nc(CN3CCCC3)cc21 | 0.0 |

# input Given the entry O=C1Nc2ccc(C(=O)c3ccco3)cc2C1=Cc1cc(Cl)c(O)c(Cl)c1 , answer whether its inhibition meets or surpasses 4%.
# output 1.0

# input Given the entry Cc1ccc(NC(=O)c2ccnc(N3CCCC3)c2)cc1-c1ccc(C(=O)NCC2CC2)cc1 , answer whether its inhibition meets or surpasses 4%.
# output 1.0

# input Given the entry COc1cc2ncn(-c3cc(OCc4ccccc4Cl)c(C(N)=O)s3)c2cc1OC , answer whether its inhibition meets or surpasses 4%.
# output 1.0

# input Given the entry [O-][S+]1CCN(Cc2ccc(-c3ccc4ncnc(Nc5ccc(OCc6ccccc6)c(F)c5)c4c3)o2)CC1 , answer whether its inhibition meets or surpasses 4%.
# output 0.0

###

# assayed.system: Serine/threonine-protein kinase B-raf (Homo sapiens);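 note: mean percent inhibition of BRAF kinase activity, from the GSK PKIS kinase inhibitor screening set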
# condition: at 0.1 µM
test.readout: inhibition (%)
Entry rule: numbers only, all in %.

Record excerpt, results attached:
| smi | inhibition (%) |
| --- | --- |
| Fc1cccc(COc2ccc(Nc3ncnc4cc(-c5ccc[nH]5)sc34)cc2Cl)c1 | 3.64 |
| NS(=O)(=O)c1cccc(-c2ccc3c(NC(=O)C4CC4)n[nH]c3c2)c1 | -1.67 |
| Fc1cccc(COc2ccc(Nc3ncnc4sc(-c5cccs5)cc34)cc2Cl)c1 | 1.35 |
| CS(=O)(=O)CCNCc1ccc(-c2ccc3ncnc(Nc4ccc(OCc5cccc(F)c5)c(C(F)(F)F)c4)c3c2)o1 | 6.3 |
| CS(=O)(=O)CCNCc1ccc(-c2ccc3ncnc(Nc4ccc(OCc5ccccc5)c(Cl)c4)c3c2)o1 | 0.1 |
| CCn1c(-c2nonc2N)nc2c(C#CC(C)(C)O)nc(CN3CCCC3)cc21 | -1.46 |
| CC(C)=Cc1cccc2c1/C(=N/Nc1ccc(S(N)(=O)=O)cc1)C(=O)N2 | 0.07 |
| COc1ccccc1Nc1ncc(-c2ccccc2)o1 | 6.58 |
| c1cnn2ncc(-c3ccnc(Nc4ccc5c(c4)OCCO5)n3)c2c1 | 9.37 |

API: the following record is the query input.
The molecule listed as COc1cc2c(cc1Nc1nc(N3CCc4ccccc43)c3cc[nH]c3n1)N(C(=O)CN(C)C)CC2 shows inhibition equal to 1.69

###

# assayed.system: Tyrosine-protein kinase HCK (Homo sapiens);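 note: values are averaged percent inhibition of HCK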
# condition: at 1 µM
Hi, to clarify the labels: 1 covers inhibition from 10% upward, -1 covers anything below 10%.

See these solved cases before continuing.
| molecule | qualitative.label |
| --- | --- |
| NS(=O)(=O)c1ccc(N/N=C2\C(=O)Nc3ccc(C(=O)NCCc4c[nH]cn4)cc32)cc1 | 1 |
| Nc1nc(-c2ccccn2)c(-c2ccc3ncccc3n2)s1 | -1 |
| COc1cc2ncn(-c3cc(OCc4ccccc4Cl)c(C(N)=O)s3)c2cc1OC | 1 |
| CS(=O)(=O)CCNCc1ccc(-c2ccc3ncnc(Nc4ccc(OCc5cccc(F)c5)c(C(F)(F)F)c4)c3c2)o1 | -1 |
| CCn1c(-c2nonc2N)nc2c(C#CC(C)(C)O)nc(CN3CCCC3)cc21 | -1 |
| NC(=O)c1cccc(Nc2nccc(Nc3cccc4[nH]ncc34)n2)c1 | 1 |

# input Given the entry NCc1ccc(-c2nc(-c3ccc(Cl)c(O)c3)c(-c3ccncc3)[nH]2)cc1 , answer whether its inhibition meets or surpasses 10%.
# output 1

# input Given the entry Fc1cccc(COc2ccc(Nc3ncnc4cc(-c5ccc[nH]5)sc34)cc2Cl)c1 , answer whether its inhibition meets or surpasses 10%.
# output -1

# input Given the entry O=C1NC(=O)C(c2ccc(Cl)cc2)=C1Nc1ccc(Cl)c(C(=O)O)c1 , answer whether its inhibition meets or surpasses 10%.
# output -1

# input Given the entry O=C1NC(=O)C(N2CCc3ccccc32)=C1c1ccc(Cl)cc1 , answer whether its inhibition meets or surpasses 10%.
# output 1

# input Given the entry COc1cc(C)c(NC(=O)CN(C)C)cc1Nc1nc(Nc2cccc(F)c2C(N)=O)c2cc[nH]c2n1 , answer whether its inhibition meets or surpasses 10%.
# output -1

# input Given the entry CC1=C(C(=O)Nc2ccc3[nH]ncc3c2)C(c2ccc(F)cc2)NC(=O)N1 (centres undefined) , answer whether its inhibition meets or surpasses 10%.
# output -1

# input Given the entry CC1=C(C(=O)Nc2ccc3[nH]ncc3c2)C(c2ccc3ccccc3c2)CC(=O)N1 (centres undefined) , answer whether its inhibition meets or surpasses 10%.
# output 1

# input Given the entry Cc1ccc(NC(=O)c2ccnc(N3CCCC3)c2)cc1-c1ccc(C(=O)NCC2CC2)cc1 , answer whether its inhibition meets or surpasses 10%.
# output 1

# input Given the entry COc1ccccc1Nc1ncc(-c2ccccc2)o1 , answer whether its inhibition meets or surpasses 10%.
# output 1

# input Given the entry COC(=O)Nc1nc2cc(Oc3cccc(NC(=O)Nc4cc(C(F)(F)F)ccc4F)c3)ccc2[nH]1 , answer whether its inhibition meets or surpasses 10%.
# output -1

# input Given the entry CCc1cccc(NC(=O)Nc2ccc(Oc3ccc4nc(NC(=O)OC)[nH]c4c3)cc2)c1 , answer whether its inhibition meets or surpasses 10%.
# output -1

# input Given the entry CCCN1CCC=C(c2ccc(Nc3nc(Nc4ccccc4C(N)=O)c4cc[nH]c4n3)c(C)c2)C1 , answer whether its inhibition meets or surpasses 10%.
# output 1
